System: CCRF-CEM
ASSAY_SUMMARY: Cytotoxic MTS assay, CCRF-CEM
Assay type: cell-based
EXPERIMENTAL_SETUP: CCRF-CEM, human leukemia cell line, 72 h, median of five assays
Would you mind telling me the reported IC50 of each entry?
One number for each entry, in nM.

Reference set, count: 3
| COMPOUND | REPORTED_PROPERTY | ASSAY_RESULT |
| --- | --- | --- |
| C=C1C(=O)C23CCC(C(=C)C)C(C)(CCC(=O)OC4CCCCC4)C2CCC1C3 (stereo not drawn) | IC50 | 380 |
| C=C1C(=O)C23CCC(C(=C)C)C(C)(CCC(=O)OC)C2CCC1C3 (stereo not drawn) | IC50 | 860 |
| C=C1C(=O)C23CCC(C(=C)C)C(C)(CCC(=O)OC(C)=O)C2CCC1C3 (stereo not drawn) [Compound 7, Caracasine-Acetic Anhydride] | IC50 | 450 |

Query block: What value of IC50 on CCRF-CEM does C=C1C(=O)C23CCC(C(=C)C)C(C)(CCC(=O)O)C2CCC1C3 (stereo not drawn) have?
Result block: 380

---

System: A549
ASSAY_SUMMARY: Cytotoxic MTS assay, A549 2D
Assay type: cell-based
EXPERIMENTAL_SETUP: A549, human tumors 2D, 72 h, median of five assays
REPORTED_PROPERTY: IC50 (µM)
One number for each entry, in µM.

Examples with answers:
| MOLECULE | IC50 / µM |
| --- | --- |
| C=C1C(=O)C23CCC(C(=C)C)C(C)(CCC(=O)OC(C)=O)C2CCC1C3 (stereo not drawn) [Compound 7, Caracasine-Acetic Anhydride] | 3.72 |
| C=C1C(=O)C23CCC(C(=C)C)C(C)(CCC(=O)OC)C2CCC1C3 (stereo not drawn) [Compound 2, Caracasine] | 8.39 |
| C=C1C(=O)C23CCC(C(=C)C)C(C)(CCC(=O)O)C2CCC1C3 (stereo not drawn) [Compound 1, Caracasine Acid] | 5.98 |

Query block: Under A549: IC50 value of C=C1C(=O)C23CCC(C(=C)C)C(C)(CCC(=O)OC4CCCCC4)C2CCC1C3 (stereo not drawn) [Compound 3, Caracasine Acid Cyclohexyl Ester] ?
Result block: 2.69

---

System: HCT116 par
ASSAY_SUMMARY: Cytotoxic MTS assay, HCT116 parental 2D
Type: cell-based
EXPERIMENTAL_SETUP: HCT-116, human tumors 2D, 72 h, median of five assays
Experimental: The cancer cell lines used in the cytotoxic assays were acquired from the American Tissue Culture Collection (ATCC) (Manassas, VA, USA) and maintained as described previously. The MRC-5 and BJ human fibroblasts were used as non-tumoral control cells. […] The in vitro cytotoxicity of compounds (1–7) was assessed using the standard 3-(4,5-dimethyl-thiazol-2yl)-5-(3-carboxymethoxyphenyl)-2-(sulfophenyl)-2H-tetrazolium (MTS). […]
Would you kindly list pIC50 for each of these compounds?
Numbers only, as −log10 of the molar value.

Sample answers from the record:
| COMPOUND | ASSAY_RESULT |
| --- | --- |
| C=C1C(=O)C23CCC(C(=C)C)C(C)(CCC(=O)O)C2CCC1C3 (stereo not drawn) | 5.76 |
| C=C1C(=O)C23CCC(C(=C)C)C(C)(CCC(=O)OC)C2CCC1C3 (stereo not drawn) | 5.69 |
| C=C1C(=O)C23CCC(C(=C)C)C(C)(CCC(=O)OC(C)=O)C2CCC1C3 (stereo not drawn) [Compound 7, Caracasine-Acetic Anhydride] | 5.67 |

Now, please, on to the next compound.
Query block: I'd like to know its pIC50. The compound in question is C=C1C(=O)C23CCC(C(=C)C)C(C)(CCC(=O)OC4CCCCC4)C2CCC1C3 (stereo not drawn)
Result block: 5.80
